Ref: patent US10239843B2

Biological target: UniProt Q86W56
Sequence (Q86W56 whole entry): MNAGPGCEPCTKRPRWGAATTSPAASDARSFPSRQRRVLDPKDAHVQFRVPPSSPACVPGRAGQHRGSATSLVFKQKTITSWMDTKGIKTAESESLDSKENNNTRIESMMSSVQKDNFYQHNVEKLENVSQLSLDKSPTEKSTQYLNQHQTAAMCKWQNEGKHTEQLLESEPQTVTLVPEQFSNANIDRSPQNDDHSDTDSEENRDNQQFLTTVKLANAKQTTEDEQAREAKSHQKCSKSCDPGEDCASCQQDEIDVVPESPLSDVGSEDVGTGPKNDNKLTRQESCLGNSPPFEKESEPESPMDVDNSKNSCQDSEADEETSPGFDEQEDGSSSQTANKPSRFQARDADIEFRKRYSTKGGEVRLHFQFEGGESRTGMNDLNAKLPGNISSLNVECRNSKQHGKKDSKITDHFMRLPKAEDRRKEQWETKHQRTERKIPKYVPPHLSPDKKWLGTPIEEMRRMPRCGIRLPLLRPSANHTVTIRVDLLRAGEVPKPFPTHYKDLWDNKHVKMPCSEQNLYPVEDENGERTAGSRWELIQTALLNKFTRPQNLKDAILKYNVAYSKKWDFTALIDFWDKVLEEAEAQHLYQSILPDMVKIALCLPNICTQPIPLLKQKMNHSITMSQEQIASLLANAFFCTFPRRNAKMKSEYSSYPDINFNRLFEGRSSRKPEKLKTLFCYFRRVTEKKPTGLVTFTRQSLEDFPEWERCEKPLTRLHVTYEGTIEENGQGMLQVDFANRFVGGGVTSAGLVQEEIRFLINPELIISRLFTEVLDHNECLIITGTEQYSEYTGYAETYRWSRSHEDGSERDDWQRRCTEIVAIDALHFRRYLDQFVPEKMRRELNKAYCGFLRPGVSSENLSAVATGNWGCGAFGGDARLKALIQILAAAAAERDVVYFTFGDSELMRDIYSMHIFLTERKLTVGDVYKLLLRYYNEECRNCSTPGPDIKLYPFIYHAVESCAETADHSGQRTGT
Assay: PARG enzyme assay (TR-FRET)
Type: biochemical
Details: read-out: PARG Biochem IC50
Outcome Measure: IC50 (µM)

Before answering, review these 5 worked examples.
>>> value_measured("Cn1cc(Cn2c(=O)c3cc(S(=O)(=O)NC4(CF)CC4)ccc3n(Cc3cn[nH]c3)c2=O)cn1")
0.03
>>> value_measured("Cc1nonc1Cn1c(=O)c2cc(S(=O)(=O)NC3(C)CC3)ccc2n(C)c1=O")
2.06
>>> value_measured("Cc1cc(Cn2c(=O)c3cc(S(=O)(=O)NC4(C)CC4)ccc3n(CCC(=O)N(C)C)c2=O)on1")
0.456
>>> value_measured("Cn1cc(Cn2c(=O)c3cc(S(=O)(=O)NC4(C)CC4)ccc3n(CC(F)F)c2=O)cn1")
0.263
>>> value_measured("Cc1cc(Cn2c(=O)n(Cc3cnn(C)c3)c(=O)c3cc(S(=O)(=O)NC4(C(F)F)CC4)ccc32)n(C)n1")
0.325

(1) Cn1c(=O)n(CC2COC2)c(=O)c2cc(S(=O)(=O)NC3(C)CC3)ccc21
(2) CC(C)CCn1c(=O)n(Cc2cnn(C)c2)c(=O)c2cc(S(=O)(=O)NC3(CF)CC3)ccc21
Exam item: Larger number for IC50: 1 , or 2 ? Give the label of your selection.
Marked response: 1
